This collection of values is drawn from patent US20260109721A1.

Test system: HepG2 cell line
Assay: In vitro toxicity study on HepG2 cell line (resazurin, viability and IC50)
Type: cell-based, human
Settings: HepG2 cells, 800 μM lipid, 48 h post-treatment, resazurin, relative to ethanol vehicle controls
Definition: the class of an entry is the range in bottom (below 20%), middle (20% to below 80%), top (80% or more) that contains its Viability (%) at different lipid concentrations, mean.

| MOLECULE | DISCRETE_LABEL |
| --- | --- |
| CCCCCCCC/C=C\CCCCCCCCOC(=O)C(C)(C)CC(OCCCCCCCC/C=C\CCCCCCCC)O[Si](C)(C)OCCCCCCN(C)CCCCO (stereo not drawn) | middle |

Then there is this molecule:
In plain terms, what class is CCCCC/C=C\C/C=C\CCCCCCCCOC(CCCCCCC/C=C\C/C=C\CCCCC)O[Si](C)(C)OCCCCCCN(C)CC(O)CO (stereo not drawn) ?
bottom
